- protocol_text: Selectivity index, ratio of EC50 for antiviral activity against Norovirus infected in human HG23 cells by visible analysis to CC50 for human HG23 cells
- Type: toxicity, cell-based
- test_parameters: read-out: Ratio CC50/EC50
For each entry below, report its selectivity ratio value.

Request: For Nc1ncc(Br)c2c1ncn2[C@@H]1C(F)=C[C@@H](O)[C@H]1O , what is its reported selectivity ratio?
Response: > 16

Request: For Nc1nccc2c1ncn2[C@@H]1C(F)=C[C@@H](O)[C@H]1O , what is its reported selectivity ratio?
Response: > 37

----------
- Tested on: Enterovirus A71
- protocol_text: Antiviral activity against Human enterovirus 71 infected in African green monkey Vero 76 cells
- Assay type: functional, organism-based
The source made the active and inactive calls. No cut-off for these calls is given here.
measurement_kind: Activity

Nc1nccc2c1ncn2[C@@H]1C(F)=C[C@@H](O)[C@H]1O; inactive
Nc1nccc2c1ncn2[C@H]1C(F)=C[C@H](O)[C@@H]1O; inactive
Nc1ncc(Br)c2c1ncn2[C@@H]1C(F)=C[C@@H](O)[C@H]1O; inactive
Nc1ncc(Br)c2c1ncn2[C@H]1C(F)=C[C@H](O)[C@@H]1O; inactive

----------
- protocol_text: Cytotoxicity against human HG23 cells
- Format: cell-based
measurement_kind: CC50

Request: For Nc1ncc(Br)c2c1ncn2[C@@H]1C(F)=C[C@@H](O)[C@H]1O , what is its reported CC50?
Response: > 100 µM

Request: For C[C@@]1(O)[C@H](O)[C@@H](CO)O[C@H]1n1ccc(N)nc1=O , what is its reported CC50?
Response: > 300 µM

Request: For Nc1nccc2c1ncn2[C@@H]1C(F)=C[C@@H](O)[C@H]1O , what is its reported CC50?
Response: > 100 µM

----------
- protocol_text: Cytotoxicity against African green monkey Vero cells
- Type: cell-based
- test_parameters: chlorocebus sabaeus
measurement_kind: CC50

Request: For Nc1nccc2c1ncn2[C@@H]1C(F)=C[C@@H](O)[C@H]1O , what is its reported CC50?
Response: ≥ 14 µM

Request: For Nc1ncc(Br)c2c1ncn2[C@@H]1C(F)=C[C@@H](O)[C@H]1O , what is its reported CC50?
Response: ≥ 9.5 µM

Request: For NC(=O)c1nc(F)cnc1O , what is its reported CC50?
Response: > 1000 µM

----------
- protocol_text: Selectivity index, ratio of EC50 for antiviral activity against Norovirus infected in human HG23 cells by visible analysis to CC50 for human HG23 cells
- Type: toxicity, cell-based
measurement_kind: selectivity ratio

Request: For C[C@@]1(O)[C@H](O)[C@@H](CO)O[C@H]1n1ccc(N)nc1=O , what is its reported selectivity ratio?
Response: > 47

----------
- protocol_text: Cytotoxicity against human HFF cells
- Type: cell-based
For each entry below, report its CC50 value.

Request: For Nc1nccc2c1ncn2[C@H]1C(F)=C[C@H](O)[C@@H]1O , what is its reported CC50?
Response: > 150 µM

Request: For Nc1ncc(Br)c2c1ncn2[C@H]1C(F)=C[C@H](O)[C@@H]1O , what is its reported CC50?
Response: > 150 µM

----------
For each entry below, report its selectivity ratio value.
- protocol_text: Selectivity index, ratio of EC50 for antiviral activity against Measles virus infected in African green monkey Vero cells by visible analysis to CC50 for African green monkey Vero cells
- Assay type: toxicity
- test_parameters: read-out: Ratio CC50/EC50

Request: For Nc1ncc(Br)c2c1ncn2[C@@H]1C(F)=C[C@@H](O)[C@H]1O , what is its reported selectivity ratio?
Response: 6.7

Request: For Nc1nccc2c1ncn2[C@@H]1C(F)=C[C@@H](O)[C@H]1O , what is its reported selectivity ratio?
Response: 10

----------
- Test system: Yellow fever virus
- protocol_text: Antiviral activity against Yellow fever virus infected in African green monkey Vero 76 cells
- Type: functional, organism-based
Activity calls are given as the source filed them. No cut-off for these calls is given here.
measurement_kind: Activity

Nc1ncc(Br)c2c1ncn2[C@H]1C(F)=C[C@H](O)[C@@H]1O; inactive
Nc1nccc2c1ncn2[C@H]1C(F)=C[C@H](O)[C@@H]1O; inactive
Nc1nccc2c1ncn2[C@@H]1C(F)=C[C@@H](O)[C@H]1O; inactive
Nc1ncc(Br)c2c1ncn2[C@@H]1C(F)=C[C@@H](O)[C@H]1O; inactive

----------
For each entry below, report its EC50 value.
- System: Zaire ebolavirus
- protocol_text: Antiviral activity against Zaire ebola virus infected in African green monkey Vero cells
- Type: functional, organism-based
Numeric answer only, unit nM assumed.

Request: For Nc1ncc(Br)c2c1ncn2[C@@H]1C(F)=C[C@@H](O)[C@H]1O , what is its reported EC50?
Response: 110

Request: For NC(=O)c1nc(F)cnc1O , what is its reported EC50?
Response: 66000

Request: For Nc1nccc2c1ncn2[C@@H]1C(F)=C[C@@H](O)[C@H]1O , what is its reported EC50?
Response: 120

----------
- protocol_text: Selectivity index, ratio of EC50 for antiviral activity against BK polyomavirus infected in human HFF cells by visible analysis to CC50 for human HFF cells
- Format: toxicity, cell-based
- test_parameters: read-out: Ratio CC50/EC50
measurement_kind: selectivity ratio

Request: For Nc1nccc2c1ncn2[C@H]1C(F)=C[C@H](O)[C@@H]1O , what is its reported selectivity ratio?
Response: > 7

Request: For Nc1ncc(Br)c2c1ncn2[C@H]1C(F)=C[C@H](O)[C@@H]1O , what is its reported selectivity ratio?
Response: > 4

----------
For each entry below, report its EC50 value.
- Tested on: BK polyomavirus
- protocol_text: Antiviral activity against BK polyomavirus infected in human HFF cells
- Type: functional, organism-based
- test_parameters: Betapolyomavirus hominis
Numeric answer only, unit µM assumed.

Request: For Nc1ncc(Br)c2c1ncn2[C@H]1C(F)=C[C@H](O)[C@@H]1O , what is its reported EC50?
Response: 34.5

Request: For Nc1nccc2c1ncn2[C@H]1C(F)=C[C@H](O)[C@@H]1O , what is its reported EC50?
Response: 23
